- experiment_notes: Inhibition of ATP synathse in Mycobacterium smegmatis str. MC2 155 inverted membrane vesicles assessed as ATP formation pre-incubated for 30 mins before NADH-ADP-phosphate buffer cocktail addition and measured after 60 mins by kinase glow reagent based assay
- Set-up: species or system Mycolicibacterium smegmatis MC2 155
readout_name: pIC50
Please express pIC50 as -log10 of the molar concentration.

Some solved cases for reference:
compound=O=C(c1cc2n(n1)CCN(Cc1cccc(Cl)c1)C2=O)N1CCCCC1 readout_name=pIC50 obs_value=6.96
compound=O=C(c1cc2n(n1)CCN(Cc1ccc(Cl)cc1)C2=O)N1CCCCC1 readout_name=pIC50 obs_value=5.98
compound=CC(C)(C)c1ccc(Cn2ccn3cc(C(=O)N4CCCCC4)nc3c2=O)cc1 readout_name=pIC50 obs_value=5.33

# ---- query molecule ----
So what's the measured pIC50 for this one? O=C(c1cc2c(=O)n(Cc3ccc(Cl)c(Cl)c3)ccn2n1)N1CCCCC1 6.09

---

// reported IC50 for each item listed
- experiment_notes: Inhibition of ATP synathse in Mycobacterium smegmatis str. MC2 155 inverted membrane vesicles assessed as ATP formation pre-incubated for 30 mins before NADH-ADP-phosphate buffer cocktail addition and measured after 60 mins by kinase glow reagent based assay
- Design: species or system Mycolicibacterium smegmatis MC2 155
Please give a number only; it is taken to be in µM.

So what's the measured IC50 for this one? CC(C)(C)c1ccc(Cn2ccn3nc(C(=O)N4CCCCC4)cc3c2=O)cc1 0.28

So what's the measured IC50 for this one? O=C(c1cn2ccn(Cc3ccc(Cl)c(Cl)c3)c(=O)c2n1)N1CCCCC1 0.52

So what's the measured IC50 for this one? CC(C)(C)c1ccc(CN2CC(O)n3nc(C(=O)N4CCCCC4)cc3C2=O)cc1 (stereo not given) 3.3

So what's the measured IC50 for this one? Cc1ccc(CN2CCn3nc(C(=O)N4CCCCC4)cc3C2=O)cc1 0.52

So what's the measured IC50 for this one? COc1nc2ccc(Br)cc2cc1C(c1ccccc1)C(O)(CCN(C)C)c1cccc2ccccc12 (racemic) 0.02

So what's the measured IC50 for this one? Cc1cccc(CN2CCn3nc(C(=O)N4CCCCC4)cc3C2=O)c1 0.042

---

- System: Mycobacterium tuberculosis
- experiment_notes: Antimicrobial activity against Mycobacterium tuberculosis H37Rv assessed as reduction in microbial growth incubated for 5 days by CLSI protocol based assay
- Format: functional
- settings: 120 h
readout_name: log10 MIC (log10 of the value in µg/mL)
Heads up, the numbers here are log10 of MIC in µg/mL units.

Some solved cases for reference:
compound=CC(C)(C)c1ccc(Cn2ccn3nc(C(=O)N4CCCCC4)cc3c2=O)cc1 readout_name="log10 MIC" obs_value=0.30
compound=O=C(c1cc2n(n1)CCN(Cc1ccc(Cl)c(Cl)c1)C2=O)N1CCCCC1 readout_name="log10 MIC" obs_value=1.20
compound=O=C(c1cc2n(n1)CCN(Cc1ccc(Cl)cc1)C2=O)N1CCCCC1 readout_name="log10 MIC" obs_value=0.90
compound="CC(C)(C)c1ccc(CN2CC(O)n3nc(C(=O)N4CCCCC4)cc3C2=O)cc1 (stereo not given)" readout_name="log10 MIC" obs_value=1.20
compound=O=C(c1cc2n(n1)CCCN(Cc1ccc(Cl)c(Cl)c1)C2=O)N1CCCCC1 readout_name="log10 MIC" obs_value=0.90

So what's the measured log10 MIC for this one? COc1nc2ccc(Br)cc2cc1C(c1ccccc1)C(O)(CCN(C)C)c1cccc2ccccc12 (racemic) -0.60

So what's the measured log10 MIC for this one? O=C(c1cc2n(c1)CCN(Cc1ccc(Cl)c(Cl)c1)C2=O)N1CCCCC1 0.90

So what's the measured log10 MIC for this one? Cc1ccc(CN2CCn3nc(C(=O)N4CCCCC4)cc3C2=O)cc1 0.90

So what's the measured log10 MIC for this one? O=C(c1cc2n(n1)CCN(Cc1cccc(Cl)c1)C2=O)N1CCCCC1 0.90

So what's the measured log10 MIC for this one? O=C(c1cc2n(n1)C(O)CN(Cc1ccc(Cl)c(Cl)c1)C2=O)N1CCCCC1 (stereo not given) 1.51

So what's the measured log10 MIC for this one? O=C(c1cn2ccn(Cc3ccc(Cl)c(Cl)c3)c(=O)c2n1)N1CCCCC1 0.60

So what's the measured log10 MIC for this one? O=C(c1cc2c(=O)n(Cc3ccc(Cl)c(Cl)c3)ccn2n1)N1CCCCC1 0.60

---

- system_tested: CYP2C9 (Homo sapiens, UniProt P11712)
- Sequence (P11712 whole entry): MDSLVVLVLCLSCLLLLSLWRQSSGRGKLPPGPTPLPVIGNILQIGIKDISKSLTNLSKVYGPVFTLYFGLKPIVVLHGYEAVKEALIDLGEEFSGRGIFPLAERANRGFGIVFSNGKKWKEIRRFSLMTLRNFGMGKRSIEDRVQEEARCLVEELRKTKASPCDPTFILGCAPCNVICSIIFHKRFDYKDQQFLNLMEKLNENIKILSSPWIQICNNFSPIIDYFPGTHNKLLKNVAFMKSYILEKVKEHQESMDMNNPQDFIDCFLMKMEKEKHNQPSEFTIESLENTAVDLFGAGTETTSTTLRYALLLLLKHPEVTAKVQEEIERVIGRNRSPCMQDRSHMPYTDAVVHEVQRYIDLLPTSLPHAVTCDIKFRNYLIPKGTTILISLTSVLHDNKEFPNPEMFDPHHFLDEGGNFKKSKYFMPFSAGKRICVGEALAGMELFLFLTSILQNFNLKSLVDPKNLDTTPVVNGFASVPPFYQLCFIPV
- experiment_notes: Inhibition of CYP2C9 in human liver microsomes at 10 uM
- Format: ADME
Entry flag: 1.0 if inhibition at 10 µM reaches 10%; 0.0 if it does not.

Example results:
compound=O=C(c1cc2n(n1)CCN(Cc1ccc(Cl)c(Cl)c1)C2=O)N1CCCCC1 category=1.0
compound=O=C(c1cc2n(n1)CCCN(Cc1ccc(Cl)c(Cl)c1)C2=O)N1CCCCC1 category=1.0
compound=O=C(c1cn2ccn(Cc3ccc(Cl)c(Cl)c3)c(=O)c2n1)N1CCCCC1 category=0.0

Decide: inhibition at 10 µM of CC(C)(C)c1ccc(CN2CCn3nc(C(=O)N4CCCCC4)cc3C2=O)cc1 >= 10%? 1.0

Decide: inhibition at 10 µM of CC(C)(C)c1ccc(Cn2ccn3cc(C(=O)N4CCCCC4)nc3c2=O)cc1 >= 10%? 0.0

Decide: inhibition at 10 µM of CC(C)(C)c1ccc(CN2CC(O)n3nc(C(=O)N4CCCCC4)cc3C2=O)cc1 (centres undefined) >= 10%? 1.0

Decide: inhibition at 10 µM of CC(C)(C)c1ccc(Cn2ccn3nc(C(=O)N4CCCCC4)cc3c2=O)cc1 >= 10%? 1.0

Decide: inhibition at 10 µM of O=C(c1cc2n(n1)C(O)CN(Cc1ccc(Cl)c(Cl)c1)C2=O)N1CCCCC1 (centres undefined) >= 10%? 1.0

Decide: inhibition at 10 µM of O=C(c1cc2c(=O)n(Cc3ccc(Cl)c(Cl)c3)ccn2n1)N1CCCCC1 >= 10%? 1.0

---

- Test system: Mycobacterium tuberculosis
- experiment_notes: Antimicrobial activity against Mycobacterium tuberculosis H37Rv assessed as reduction in microbial growth incubated for 5 days by CLSI protocol based assay
- Type: functional
- settings: 120 h
readout_name: MIC

Some solved cases for reference:
compound=CC(C)(C)c1ccc(CN2CCn3nc(C(=O)N4CCCCC4)cc3C2=O)cc1 obs_value="8 µg/mL"
compound=CN1CCn2nc(C(=O)N3CCCCC3)cc2C1=O obs_value="> 32 µg/mL"
compound=O=C(c1cc2n(n1)CCN(Cc1ccc(Cl)c(Cl)c1)C2=O)N1CCC(c2ccccc2)CC1 obs_value="> 32 µg/mL"
compound=O=C(c1cc2n(n1)CCN(Cc1ccccc1Cl)C2=O)N1CCCCC1 obs_value="> 32 µg/mL"
compound=Cc1cccc(CN2CCn3nc(C(=O)N4CCCCC4)cc3C2=O)c1 obs_value="16 µg/mL"
compound=CN(C)CCOc1ccc(NC(=O)c2cc3n(n2)CCN(Cc2ccc(Cl)c(Cl)c2)C3=O)cc1 obs_value="> 32 µg/mL"

# ---- query compound ----
So what's the measured MIC for this one? O=C(c1cc2n(n1)CCN(Cc1ccccc1)C2=O)N1CCCCC1 > 32 µg/mL

---

- experiment_notes: Solubility in pH 6.8 buffer
- Format: physicochemical
Entry flag: YES if solubility reaches 3 µg/mL; NO if it does not.

Example results:
compound="CC(C)(C)c1ccc(CN2CC(O)n3nc(C(=O)N4CCCCC4)cc3C2=O)cc1 (centres undefined)" category=YES
compound=O=C(c1cc2n(n1)CCCN(Cc1ccc(Cl)c(Cl)c1)C2=O)N1CCCCC1 category=YES
compound=O=C(c1cc2n(n1)CCN(Cc1ccc(Cl)c(Cl)c1)C2=O)N1CCCCC1 category=YES
compound=CC(C)(C)c1ccc(CN2CCn3nc(C(=O)N4CCCCC4)cc3C2=O)cc1 category=YES
compound=CC(C)(C)c1ccc(Cn2ccn3cc(C(=O)N4CCCCC4)nc3c2=O)cc1 category=NO

Decide: solubility of O=C(c1cc2n(n1)C(O)CN(Cc1ccc(Cl)c(Cl)c1)C2=O)N1CCCCC1 (centres undefined) >= 3 µg/mL? NO

Decide: solubility of O=C(c1cn2ccn(Cc3ccc(Cl)c(Cl)c3)c(=O)c2n1)N1CCCCC1 >= 3 µg/mL? NO

Decide: solubility of O=C(c1cc2c(=O)n(Cc3ccc(Cl)c(Cl)c3)ccn2n1)N1CCCCC1 >= 3 µg/mL? NO

Decide: solubility of CC(C)(C)c1ccc(Cn2ccn3nc(C(=O)N4CCCCC4)cc3c2=O)cc1 >= 3 µg/mL? NO

---

- experiment_notes: Inhibition of ATP synathse in Mycobacterium smegmatis str. MC2 155 inverted membrane vesicles assessed as ATP formation pre-incubated for 30 mins before NADH-ADP-phosphate buffer cocktail addition and measured after 60 mins by kinase glow reagent based assay
- Parameters: species or system Mycolicibacterium smegmatis MC2 155
readout_name: pIC50
Please express pIC50 as -log10 of the molar concentration.

Some solved cases for reference:
compound=CC(C)(C)c1ccc(CN2CCn3nc(C(=O)N4CCCCC4)cc3C2=O)cc1 obs_value=6.54
compound=O=C(c1cc2n(n1)CCN(Cc1ccc(Cl)c(Cl)c1)C2=O)N1CCCCC1 obs_value=6.57
compound=O=C(c1cc2n(n1)CCN(Cc1cccc(-c3ccccc3)c1)C2=O)N1CCCCC1 obs_value=7.34
compound=O=C(c1cc2n(c1)CCN(Cc1ccc(Cl)c(Cl)c1)C2=O)N1CCCCC1 obs_value=5.81
compound=O=C(c1cc2n(n1)CCCN(Cc1ccc(Cl)c(Cl)c1)C2=O)N1CCCCC1 obs_value=6.54

# ---- query compound ----
So what's the measured pIC50 for this one? O=C(c1cc2n(n1)C(O)CN(Cc1ccc(Cl)c(Cl)c1)C2=O)N1CCCCC1 (stereo not given) 5.98
